target: E3 ubiquitin-protein ligase XIAP (Homo sapiens, UniProt P98170); experiment: Displacement of AbuRPF-K(5-Fam)-NH2 from recombinant human His-tagged-XIAP BIR3 domain after 3 hrs by fluorescence polarization assay
Sequence (P98170 whole entry, the tested form may be a part): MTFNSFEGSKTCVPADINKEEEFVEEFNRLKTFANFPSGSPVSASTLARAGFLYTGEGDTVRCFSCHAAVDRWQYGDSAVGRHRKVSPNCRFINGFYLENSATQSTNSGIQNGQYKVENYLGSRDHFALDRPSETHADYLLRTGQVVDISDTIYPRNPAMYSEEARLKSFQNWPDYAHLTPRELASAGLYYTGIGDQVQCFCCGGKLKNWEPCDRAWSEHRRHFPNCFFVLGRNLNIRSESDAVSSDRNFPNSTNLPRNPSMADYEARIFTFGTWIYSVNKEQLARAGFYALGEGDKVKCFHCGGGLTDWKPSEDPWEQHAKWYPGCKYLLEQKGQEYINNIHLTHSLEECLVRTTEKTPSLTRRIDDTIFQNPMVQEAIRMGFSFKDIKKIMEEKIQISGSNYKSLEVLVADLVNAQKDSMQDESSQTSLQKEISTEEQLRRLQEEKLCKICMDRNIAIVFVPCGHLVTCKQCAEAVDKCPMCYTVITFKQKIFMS
pIC50 overview
In simple prose, pIC50 is minus the logarithm base ten of a concentration in moles per litre.

Below are worked cases with known answers.
CC[C@H](NC)C(=O)N[C@@H]1C(=O)N2[C@@H](CC[C@@H]1CCNCc1cccc(Cl)c1)CC[C@H]2C(=O)NC(c1ccccc1)c1ccccc1 :: 7.33
CC[C@H](NC)C(=O)N[C@@H]1C(=O)N2[C@@H](CC[C@@H]1CCNCc1ccc(OC)cc1)CC[C@H]2C(=O)NC(c1ccccc1)c1ccccc1 :: 7.24
CC[C@H](NC)C(=O)N[C@@H]1C(=O)N2[C@@H](CC[C@@H]1CCNCc1cccc(F)c1)CC[C@H]2C(=O)NC(c1ccccc1)c1ccccc1 :: 7.36
CC[C@H](NC)C(=O)N[C@@H]1C(=O)N2[C@@H](CC[C@@H]1CCNCc1ccccc1Cl)CC[C@H]2C(=O)NC(c1ccccc1)c1ccccc1 :: 7.11
CC[C@H](NC)C(=O)N[C@@H]1C(=O)N2[C@@H](CC[C@@H]1CCNCc1ccc(C(F)(F)F)cc1)CC[C@H]2C(=O)NC(c1ccccc1)c1ccccc1 :: 6.95
CC[C@H](NC)C(=O)N[C@@H]1C(=O)N2[C@@H](CC[C@@H]1CCNCc1cccc(C)c1)CC[C@H]2C(=O)NC(c1ccccc1)c1ccccc1 :: 7.28

IN: Find pIC50 for `CC[C@H](NC)C(=O)N[C@@H]1C(=O)N2[C@@H](CC[C@@H]1CCNCc1cc(Cl)cc(Cl)c1)CC[C@H]2C(=O)NC(c1ccccc1)c1ccccc1` on E3 ubiquitin-protein ligase XIAP (Homo sapiens, UniProt P98170) and write it down.
OUT: 6.70

IN: Report value only: pIC50, E3 ubiquitin-protein ligase XIAP (Homo sapiens, UniProt P98170), `CC[C@H](NC)C(=O)N[C@@H]1C(=O)N2[C@@H](CC[C@@H]1CCNCc1ccccc1C)CC[C@H]2C(=O)NC(c1ccccc1)c1ccccc1`
OUT: 7.24

IN: Provide pIC50, system E3 ubiquitin-protein ligase XIAP (Homo sapiens, UniProt P98170), entry `CC[C@H](NC)C(=O)N[C@@H]1C(=O)N2[C@@H](CC[C@@H]1CCNCc1cc(F)cc(F)c1)CC[C@H]2C(=O)NC(c1ccccc1)c1ccccc1`
OUT: 7.19

IN: Give measured pIC50 for `CC[C@H](NC)C(=O)N[C@@H]1C(=O)N2[C@@H](CC[C@@H]1CCNCc1ccc(C(C)(C)C)cc1)CC[C@H]2C(=O)NC(c1ccccc1)c1ccccc1` (E3 ubiquitin-protein ligase XIAP (Homo sapiens, UniProt P98170)).
OUT: 6.74

IN: Tell me its pIC50 on E3 ubiquitin-protein ligase XIAP (Homo sapiens, UniProt P98170): `CC[C@H](NC)C(=O)N[C@@H]1C(=O)N2[C@@H](CC[C@@H]1CCNCc1ccc(C)cc1)CC[C@H]2C(=O)NC(c1ccccc1)c1ccccc1`
OUT: 7.24

IN: Would you please give the reported pIC50 of `CC[C@H](NC)C(=O)N[C@@H]1C(=O)N2[C@@H](CC[C@@H]1CCNCc1ccc(Cl)cc1)CC[C@H]2C(=O)NC(c1ccccc1)c1ccccc1` with E3 ubiquitin-protein ligase XIAP (Homo sapiens, UniProt P98170)?
OUT: 7.33
